protocol.conditions: in water, 298.2 K
measurement.kind: solubility (mole fraction)
Kindly provide the number alone.

Name the reported solubility (mole fraction) value associated with the compound `CC(=O)Nc1ccc(O)cc1`
0.00202

----------
protocol.conditions: in acetonitrile, 293.2 K
measurement.kind: solubility (mole fraction)
Kindly provide the number alone.

Name the reported solubility (mole fraction) value associated with the compound `CC(=O)Nc1ccc(O)cc1`
0.00682

----------
protocol.conditions: in water, 313.2 K
measurement.kind: solubility (mole fraction)
Kindly provide the number alone.

Name the reported solubility (mole fraction) value associated with the molecule `CC(=O)Nc1ccc(O)cc1`
0.00313
